target: Heat shock protein HSP90 (Homo sapiens, UniProt P07900+P08238); assay: Binding affinity to human Hsp90 expressed in Escherichia coli by SPR assay
Kd values by entry

Look over these answered cases.
CCNC(=O)c1noc(-c2cc(-c3ccccc3)c(O)cc2O)c1-c1ccc(CN2CCOCC2)cc1	> 25 µM
CCNC(=O)c1noc(-c2cc(-c3cccc(C(C)C)c3)c(O)cc2O)c1-c1ccc(CN2CCOCC2)cc1	> 25 µM
CNC(=O)c1noc(-c2cc(-c3ccc(C)cc3)c(O)cc2O)c1-c1ccc(CN2CCOCC2)cc1	> 25 µM

For Heat shock protein HSP90 (Homo sapiens, UniProt P07900+P08238), give the measured Kd of the entry CCNC(=O)c1noc(-c2cc(-c3ccc(C)cc3)c(O)cc2O)c1-c1ccc(CN2CCCCC2)cc1 > 25 µM

For Heat shock protein HSP90 (Homo sapiens, UniProt P07900+P08238), give the measured Kd of the entry CCNC(=O)c1noc(-c2cc(-c3ccccc3C)c(O)cc2O)c1-c1ccc(CN2CCOCC2)cc1 > 25 µM
